Recorded IC50 for molecules tested on Aminopeptidase N (Sus scrofa, UniProt P15145), drawn from a number of studies.
Sequence (P15145 whole entry): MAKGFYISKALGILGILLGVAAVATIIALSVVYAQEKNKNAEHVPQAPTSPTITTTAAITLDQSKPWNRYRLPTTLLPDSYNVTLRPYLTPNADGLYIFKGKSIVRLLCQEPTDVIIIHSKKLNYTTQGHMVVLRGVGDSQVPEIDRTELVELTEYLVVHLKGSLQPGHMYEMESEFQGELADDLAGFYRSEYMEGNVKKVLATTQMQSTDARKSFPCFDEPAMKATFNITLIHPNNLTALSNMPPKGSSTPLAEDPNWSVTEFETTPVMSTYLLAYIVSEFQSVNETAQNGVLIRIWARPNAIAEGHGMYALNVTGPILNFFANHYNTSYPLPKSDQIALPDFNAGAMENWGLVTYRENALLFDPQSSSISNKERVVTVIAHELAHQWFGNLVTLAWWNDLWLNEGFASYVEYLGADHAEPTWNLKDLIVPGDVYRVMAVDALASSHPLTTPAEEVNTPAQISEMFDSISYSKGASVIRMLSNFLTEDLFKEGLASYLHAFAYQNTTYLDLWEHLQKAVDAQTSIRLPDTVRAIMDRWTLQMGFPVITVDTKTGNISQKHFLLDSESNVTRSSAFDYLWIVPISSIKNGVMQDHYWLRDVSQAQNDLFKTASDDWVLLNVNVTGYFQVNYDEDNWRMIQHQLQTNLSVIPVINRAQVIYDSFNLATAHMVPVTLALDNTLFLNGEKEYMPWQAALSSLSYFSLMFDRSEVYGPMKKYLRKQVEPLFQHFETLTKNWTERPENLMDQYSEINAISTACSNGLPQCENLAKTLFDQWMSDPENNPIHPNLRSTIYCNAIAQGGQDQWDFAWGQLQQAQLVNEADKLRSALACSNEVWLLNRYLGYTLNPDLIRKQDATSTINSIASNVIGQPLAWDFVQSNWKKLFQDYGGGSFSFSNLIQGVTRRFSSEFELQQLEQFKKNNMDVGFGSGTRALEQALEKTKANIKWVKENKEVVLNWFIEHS
Numbers only, in µM.

Below, each entry is followed by its recorded IC50 result.
Molecule	IC50 (µM)
N[C@@H](CNC(=O)c1cc([N+](=O)[O-])cc([N+](=O)[O-])c1)Cc1ccccc1	204
N[C@@H](C(=O)NCCCC(=O)O)[C@@H](O)c1ccc([N+](=O)[O-])cc1	2890
O=C(O)C[C@H](NC(=O)[C@@H](CC(=O)NO)Cc1ccccc1)c1ccccc1 (racemic)	0.0325
CCCNNC(=O)CCCCCCNC(=O)[C@H](CC(C)C)NC(=O)[C@@H](O)[C@H](N)Cc1ccccc1	9.53
CC(C)C[C@H](NC(=O)NCc1ccc(F)cc1)C(=O)NO	0.73

Hi! Can you tell me IC50 for each of these molecules?
1. CC(C)[C@H](NC(=O)N[C@@H](Cc1ccccc1)C(=O)NC[C@H](N)Cc1ccccc1)C(=O)O
2. O=C(O)C[C@H](Cc1ccccc1)NC(=O)[C@@H](CC(=O)NO)Cc1ccccc1 (racemic)
3. CC(C)C[C@H](NC(=O)CCCCCN)C(=O)NC[C@H](N)Cc1ccccc1

1. 58.5
2. 0.0225
3. 1460

Please report the recorded IC50 for N[C@@H](C(=O)N[C@H](CO)Cc1ccccc1)[C@@H](O)c1ccc([N+](=O)[O-])cc1 .
116
